Experiment: yeast display, Sf9 membrane polyspecificity reagent, FACS + sequencing; frameworks hold sequencing errors
Measured Quantity: polyreactivity (PSR sort gate)

Observe how each entry below is paired with its result.
| Sequence Data | Experimental Value |
| --- | --- |
| QVQLVESGGGLVQAGGSLRLSCAASGIIFPQNAMGWSRQAPGKERELVAAISKSGGRTYYADSVKGRFTISRDNAKNTVYVQMNSLKPEDSAVYYCAKVPYAYSRDRSAEDSWGQGTQVTVSS | high polyreactivity |
| QVQLVESGGGLVQAGGSLRLSCAASGSTFAYNAMGCYRQAPGKERELVAAISFTGDSTYYADSVKGRFTISRDNAKYTVYLQMNSLKPEDNRSSPVLSYDYWGQGTQVTVSS | low polyreactivity |
| QVQLVESGGGLVQAGGSLRLSCAATGSIFASYAMGWYRQAPGKERELVASITRVDSTNYADSVKGRFTISRDNAKNTVYLQMNSLKPEDTAVYYCAADYYIVLTKSDGLFGSWGQGTQVTVSS | low polyreactivity |
| QVQLVESGGGLVQAGGSLRLSCAASGITVYVNVMGWYRQAPGKERELVAGISYSGGSTYYADSVKGRFTISRDNAKNTVYLQMNSLKPEDTAVYYCAADYWYYGSPVSRPYYYWGQGTQVTVSS | high polyreactivity |
| QVQLVESGGALVQAGGSLRLSCAASGRIFYKYVMGWYRQAPGKERELVATITSGGSTYYADSVKWRFTISRDNAKNTVYLQMNSLKPEDTAVYYCAARKYYSRAYDYWGQGTQVTVSS | high polyreactivity |

Q: Name the recorded polyreactivity (PSR sort gate) for "QVQLVESGGGLVQAGGSLRLSCAASGRIFSFYAMVWSRQAPGKERELVAAISSGGYTYYADSVKGRFTISRDNAKNTVYLQMNSLKPEDTAVYYCATGYRKLSSRYGYWGQGTQVTVSS" .
A: high polyreactivity

The values you see were collected from the nanobody polyreactivity screen of Harvey et al. (2022).
